- STUDY_TARGET: T1, mouse TNFR1 (recombinant, R&D Systems cat no. 425-R1-050/CF, biotinylated) (mouse, UniProt P25118 22-212, biotinylated with EZ-Link NHS-LC-LC-biotin)
- T1 construct: also called murine TNFR1; biotinylated mouse TNFR1
- T1 sequence (looked up): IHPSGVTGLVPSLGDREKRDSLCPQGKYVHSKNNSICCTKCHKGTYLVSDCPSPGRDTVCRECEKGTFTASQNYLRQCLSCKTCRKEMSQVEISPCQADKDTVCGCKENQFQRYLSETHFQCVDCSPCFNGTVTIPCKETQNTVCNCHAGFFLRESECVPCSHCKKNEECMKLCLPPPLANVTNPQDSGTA
- PROCEDURE_DETAILS: BIAcore, mouse TNFR1 on SA chip
MEASUREMENT_NAME: koff
State the value with its unit after it.

INSERT INTO assay_data (binder, value_measured) VALUES
  ('DOM1h-574-135 (other, VH dAb) VH: EVQLLESGGGLVQPGGSLRLSCAASGFTFVKYSMGWVRQAPGKGLEWVSQISDTADRTYYTHSVKGRFTISRDNSKNTLYLQMNSLRAEDTAVYYCAIYTGRWVPFEYWGQGTLVTVSS', '0.00045 s⁻¹');

Identify the reported koff for the following entry. DOM1h-574-133 (other, VH dAb) VH: EVQLLESGGGLVQPGGSLRLSCAASGFTFVKYSMGWVRQAPGKGLEWVSQISDTADRTYYDHSVKGRFTISRDNSKNTLYLQMNSLRAEDTAVYYCAIYTGRWEPFVYWGQGTLVTVSS
0.00075 s⁻¹

Identify the reported koff for the following entry. DOM1h-574-138 (other, VH dAb) VH: EVQLLESGGGLVQPGGSLRLSCAASGFTFFKYSMGWVRQAPGKGLEWVSQISDTADRTYYAHSVKGRFTISRDNSKNTLYLQMNSLRAEDTAVYYCAIYTGRWAPFEYWGQGTLVTVSS
0.0003 s⁻¹

Identify the reported koff for the following entry. DOM1h-574-72 (other, VH dAb; expressed in E. coli, purified on Protein A) VH: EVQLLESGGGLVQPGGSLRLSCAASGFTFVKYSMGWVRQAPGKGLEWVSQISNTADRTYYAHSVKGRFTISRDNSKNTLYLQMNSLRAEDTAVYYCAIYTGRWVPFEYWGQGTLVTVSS
0.00068 s⁻¹
